Reported pKd by item:
Molecular target: TIM-3 (antigen; species and construct not stated for the assay) (UniProt Q8TDQ0 22-202, limits assumed)
Test: SPR (Biacore), run of May 30, 2014
Note on units: pKd is unitless, being -log10 of a concentration expressed in mol/L.

Answered examples (3):
[[record]]
binder = "ABTIM3-hum11 (antibody, human IgG4 S228P, kappa, V domains shown, Humanized; Immobilized on Protein G beads and cross-linked with DSS in the HDx-MS experiment) VH: QVQLVQSGAEVKKPGSSVKVSCKASGYTFTSYNMHWVRQAPGQGLEWMGDIYPGNGDTSYNQKFKGRVTITADKSTSTVYMELSSLRSEDTAVYYCARVGGAFPMDYWGQGTTVTVSS VL: AIQLTQSPSSLSASVGDRVTITCRASESVEYYGTSLMQWYQQKPGKAPKLLIYAASNVESGVPSRFSGSGSGTDFTLTISSLQPEDFATYFCQQSRKDPSTFGGGTKVEIKR"
endpoint = "pKd"
experimental_result = 9.71

[[record]]
binder = "ABTIM3-hum12 (antibody, human IgG4 S228P, kappa, V domains shown, Humanized) VH: EVQLVQSGAEVKKPGESLKISCKGSGYTFTSYNMHWVRQMPGKGLEWMGDIYPGNGDTSYNQKFKGQVTISADKSISTVYLQWSSLKASDTAMYYCARVGGAFPMDYWGQGTTVTVSS VL: AIQLTQSPSSLSASVGDRVTITCRASESVEYYGTSLMQWYQQKPGKAPKLLIYAASNVESGVPSRFSGSGSGTDFTLTISSLQPEDFATYFCQQSRKDPSTFGGGTKVEIKR"
endpoint = "pKd"
experimental_result = 9.45

[[record]]
binder = "ABTIM3-hum10 (antibody, human IgG4 S228P, kappa, V domains shown, Humanized) VH: EVQLVQSGAEVKKPGESLKISCKGSGYTFTSYNMHWVRQMPGKGLEWMGDIYPGNGDTSYNQKFKGQVTISADKSISTVYLQWSSLKASDTAMYYCARVGGAFPMDYWGQGTTVTVSS VL: EIVLTQSPATLSLSPGERATLSCRASESVEYYGTSLMQWYQQKPGQAPRLLIYAASNVESGIPARFSGSGSGTDFTLTISSLEPEDIAVYFCQQSRKDPSTFGGGTKVEIKR"
endpoint = "pKd"
experimental_result = 9.97


Please find the next binder below.
Return pKd (reported value) for this binder: ABTIM3-hum08 (antibody, human IgG4 S228P, kappa, V domains shown, Humanized) VH: QVQLVQSGAEVKKPGASVKVSCKASGYTFTSYNMHWVRQAPGQGLEWIGDIYPGNGDTSYNQKFKGRATMTADKSTSTVYMELSSLRSEDTAVYYCARVGGAFPMDYWGQGTLVTVSS VL: DIVLTQSPDSLAVSLGERATINCRASESVEYYGTSLMQWYQQKPGQPPKLLIYAASNVESGVPDRFSGSGSGTDFTLTISSLQAEDVAVYFCQQSRKDPSTFGGGTKVEIKR
9.76
